System: DU-145 prostate
experimental-details: NCI tumour cell line growth inhibition, 48 h
Listed below: TGI values for each entry.

molecule=N/C(=N\c1nc2ccccc2s1)NC(=O)Nc1cccc2ccccc12 assay_value="4.2 µM"

### Prompt Dear colleague, please send me the reported TGI for COc1ccc(-c2cc(-c3nnc(SCC(=O)Nc4ccc(C(C)=O)cc4)o3)c3ccccc3n2)cc1 when you can.
### Response > 100 µM

### Prompt Answer with the recorded TGI for the molecule listed here: CCCCCCOc1ccc(NC2=C(Cl)C(=O)c3ncccc3C2=O)cc1
### Response 2.83 µM

### Prompt Hello, please tell me recorded TGI for this one: COc1cc(CNc2nc3cc(C(F)(F)F)ccc3nc2C)cc(OC)c1OC
### Response > 100 µM

### Prompt In one line, give reported TGI of the entry CCCCCCCCC/C=C1\CC(CO)(COC(=O)c2ccccc2)OC1=O (stereo unspecified) .
### Response > 100 µM

### Prompt Quickly give me recorded TGI for O=C(NC1(C(=O)O)CC1c1ccccc1)c1ccccc1 (stereo unspecified)
### Response > 100 µM

### Prompt Input Nc1c(S(=O)(=O)O)cc(Nc2cccc(S(=O)(=O)/C=C/S(=O)(=O)O)c2)c2c1C(=O)c1ccccc1C2=O , output reported TGI.
### Response > 100 µM
